target: binding partner (antigen) of C5A (XPA23); test: Biacore, K-off, fold vs original
Experimental endpoint: fold difference in affinity vs original (fold)
Could you give me the number in fold? Just the number is fine.

>  <Binder>
C5A (XPA23) VH Y107F (antibody, V domains shown) VH: EVQLLESGGGLVQPGGSLRLSCAASGFTFSKYFMFWVRQAPGKGLEWVSVISPSGGMTRYADSVKGRFTISRDNSKNTLYLQMNSLRAEDTAVYYCARVGYGGNSDFWGQGTLVTVSS VL: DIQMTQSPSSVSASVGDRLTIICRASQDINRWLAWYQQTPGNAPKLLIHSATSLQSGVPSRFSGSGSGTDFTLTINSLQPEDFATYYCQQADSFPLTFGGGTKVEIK

>  <fold difference in affinity vs original, fold>
0.9

$$$$

Let us move to another entry and its fold difference in affinity vs original.
**Q:** // fold difference in affinity vs original lookup, key: C5A (XPA23) VH G56W (antibody, V domains shown) VH: EVQLLESGGGLVQPGGSLRLSCAASGFTFSKYFMFWVRQAPGKGLEWVSVISPSGWMTRYADSVKGRFTISRDNSKNTLYLQMNSLRAEDTAVYYCARVGYGGNSDYWGQGTLVTVSS VL: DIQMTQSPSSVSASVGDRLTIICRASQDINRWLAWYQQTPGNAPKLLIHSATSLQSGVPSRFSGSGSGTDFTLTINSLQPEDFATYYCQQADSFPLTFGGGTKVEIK
**A:** 1.51

The reported numbers originate from patent US20110118447A1.
